# experimental_target: AtPDF (Arabidopsis thaliana, UniProt Q9FUZ2)
# Sequence (Q9FUZ2 57-273): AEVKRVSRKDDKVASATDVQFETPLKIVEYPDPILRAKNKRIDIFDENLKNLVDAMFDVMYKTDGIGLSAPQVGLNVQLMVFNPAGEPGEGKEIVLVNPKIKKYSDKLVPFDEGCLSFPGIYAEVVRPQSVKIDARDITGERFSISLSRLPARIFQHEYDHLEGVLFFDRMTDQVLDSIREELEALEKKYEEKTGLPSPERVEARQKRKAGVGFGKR
# assay_details: Isothermal titration calorimetry (ITC)
# Format: binding
# Design: Expression and purification of mature Arabidopsis thaliana PDF1B and all variants (i.e., AtPDF); made in house
# particulars: WT; from ITC (value in parentheses); 37°C
measurement_name: Kd (nM)
Answer format: numeric, nM implied, no suffix.

Lab book: Kd of CCCCC[C@H](CC(=O)NO)C(=O)N[C@H](C(=O)N1CCC[C@H]1CO)C(C)C noted as 4.5

---

# experimental_target: AtPDF (Arabidopsis thaliana)
# assay_details: PDF activity assay coupled to formate dehydrogenase (NADH absorbance at 340 nm)
# particulars: K I*, enzyme 100 nM; actinonin preincubated with enzyme 10 min at 37°C, assay initiated by substrate
measurement_name: Ki

Lab book: Ki of CCCCC[C@H](CC(=O)NO)C(=O)N[C@H](C(=O)N1CCC[C@H]1CO)C(C)C noted as 900 pM
